Please go through the items and note down their Ki.
Target: Sushi domains (SD1/2) protein
Experiment: Fluorescence polarization (FP) competition assay with AJAP-1probe, calculated Ki
Type: binding
Conditions: Table 9, Ala-, D-amino acids and N-methylation scans of PIANPWT; read-out: Ki (nM) mean ± SEM
Non-standard residues stand in square brackets, D forms with d. Residues, ends and D or L forms follow the SMILES beside them. NMeW = CN[C@@H](Cc1c[nH]c2ccccc12)C(=O)O; NMeT = CN[C@H](C(=O)O)[C@@H](C)O; NMeS = CN[C@@H](CO)C(=O)O
Give just the numeric value; nM need not be written.

Look at this compound and give its reported Ki. CC[C@H](C)[C@H](NC(=O)[C@H](C)NC(=O)[C@H](Cc1c[nH]c2ccccc12)NC(=O)[C@@H]1CCCN1C(C)=O)C(=O)N[C@H](C(=O)N[C@@H](Cc1c[nH]c2ccccc12)C(=O)NCC(=O)N1CCC[C@H]1C(=O)N(C)[C@H](C(=O)N[C@H](C(=O)N[C@@H](CO)C(=O)N[C@@H](CCCNC(=N)N)C(=O)N[C@@H](CCC(=O)O)C(=O)N[C@@H](CC(=O)O)C(N)=O)C(C)C)[C@@H](C)O)C(C)C (Ac-PWAIVWGP[NMeT]VSRED-NH2) 1260

Look at this compound and give its reported Ki. CC[C@H](C)[C@H](NC(=O)[C@H](C)NC(=O)[C@H](Cc1c[nH]c2ccccc12)NC(=O)[C@@H]1CCCN1C(C)=O)C(=O)N[C@H](C(=O)N(C)[C@@H](Cc1c[nH]c2ccccc12)C(=O)NCC(=O)N1CCC[C@H]1C(=O)N[C@H](C(=O)N[C@H](C(=O)N[C@@H](CO)C(=O)N[C@@H](CCCNC(=N)N)C(=O)N[C@@H](CCC(=O)O)C(=O)N[C@@H](CC(=O)O)C(N)=O)C(C)C)[C@@H](C)O)C(C)C [PWAIV(N-Me-W)GPTVSRED] (Ac-PWAIV[NMeW]GPTVSRED-NH2) 636

Look at this compound and give its reported Ki. CC[C@H](C)[C@H](NC(=O)[C@H](C)NC(=O)[C@H](Cc1c[nH]c2ccccc12)NC(=O)[C@@H]1CCCN1C(C)=O)C(=O)N[C@H](C(=O)N[C@@H](Cc1c[nH]c2ccccc12)C(=O)NCC(=O)N1CCC[C@H]1C(=O)N[C@H](C(=O)N[C@H](C(=O)N(C)[C@@H](CO)C(=O)N[C@@H](CCCNC(=N)N)C(=O)N[C@@H](CCC(=O)O)C(=O)N[C@@H](CC(=O)O)C(N)=O)C(C)C)[C@@H](C)O)C(C)C (Ac-PWAIVWGPTV[NMeS]RED-NH2) 1040
